- Test system: Enterococcus faecium
- ASSAY INFO: Antibacterial activity against vancomycin resistant Enterococcus faecium ATCC 700221 assessed as inhibition of bacterial growth incubated for 48 hrs by CLSI-based broth microdilution assay
- Format: functional
Square brackets hold non-standard residues; d marks the D form. Peptide text beside a SMILES is read from it. 2Nal = N[C@@H](Cc1ccc2ccccc2c1)C(=O)O; hIle = CC[C@H](C)C[C@H](N)C(=O)O; Cha = N[C@@H](CC1CCCCC1)C(=O)O
Recorded MIC values for a group of molecules are listed next.

* CC[C@H](C)C[C@H](NC(=O)[C@H](CCCNC(=N)N)NC(=O)[C@H](CCCCN)NC(=O)[C@H](CC(C)C)NC(=O)[C@H](CC(C)C)NC(=O)CN)C(=O)N[C@@H](CCCCN)C(=O)N[C@H](C(=O)N[C@@H](CC(C)C)C(=O)N[C@@H](CC1CCCCC1)C(N)=O)[C@@H](C)O (H-GLLKR[hIle]KTL[Cha]-NH2) | 26.3 µM
* CC[C@H](C)C[C@H](NC(=O)[C@H](CCCNC(=N)N)NC(=O)[C@H](CCCCN)NC(=O)[C@H](CC(C)C)NC(=O)[C@H](CC(C)C)NC(=O)CN)C(=O)N[C@@H](CCCCN)C(=O)N[C@H](C(=O)N[C@@H](Cc1ccc2ccccc2c1)C(=O)N[C@@H](CC(C)C)C(N)=O)[C@@H](C)O (H-GLLKR[hIle]KT[2Nal]L-NH2) | 8.8 µM

Then there is this molecule:
[ask] Report MIC, nothing else, for this molecule: CC[C@H](C)[C@H](NC(=O)[C@H](Cc1ccccc1)NC(=O)[C@H](CCCCN)NC(=O)[C@H](CC(C)C)NC(=O)[C@H](CC(C)C)NC(=O)CN)C(=O)N[C@@H](CCCCN)C(=O)N[C@@H](CCCCN)C(=O)N[C@@H](CC(C)C)C(=O)N[C@@H](CC(C)C)C(N)=O (H-GLLKFIKKLL-NH2)
[reply] 9.5 µM

====

Recorded MIC values for a group of molecules are listed next.
- Test system: Bacillus subtilis
- ASSAY INFO: Antibacterial activity against Bacillus subtilis ATCC 23857 assessed as reduction in bacterial growth incubated for 18 hrs by CLSI-based Mueller-Hinton broth dilution method
- Format: functional
State the answer as a number, implicitly in µM.

* CCCCCCCCC(=O)NCCCC[C@@H](NC(=O)[C@@H](NC(=O)[C@H](CCCNC(=N)N)NC(=O)[C@@H](CCCCN)NC(=O)[C@H](CC(C)C)NC(=O)[C@H](CC(C)C)NC(=O)CN)[C@@H](C)CC)C(=O)N[C@H](C(=O)N[C@@H](CC(C)C)C(=O)N[C@@H](CC(C)C)C(N)=O)[C@@H](C)O | 2

[ask] Report MIC, nothing else, for this molecule: "CCCCCCCCCCCCCCC(=O)NCCCC[C@@H](NC(=O)[C@H](CC(C)C)NC(=O)[C@H](CC(C)C)NC(=O)CN)C(=O)N[C@@H](CCCNC(=N)N)C(=O)N[C@H](C(=O)N[C@H](CCCCN)C(=O)N[C@H](C(=O)N[C@@H](CC(C)C)C(=O)N[C@@H](CC(C)C)C(N)=O)[C@@H](C)O)[C@@H](C)CC"
[reply] 4

[ask] Report MIC, nothing else, for this molecule: "CCCCCCCCCCC(=O)NCCCC[C@@H](NC(=O)[C@@H](NC(=O)[C@H](CCCNC(=N)N)NC(=O)[C@@H](CCCCN)NC(=O)[C@H](CC(C)C)NC(=O)[C@H](CC(C)C)NC(=O)CN)[C@@H](C)CC)C(=O)N[C@H](C(=O)N[C@@H](CC(C)C)C(=O)N[C@@H](CC(C)C)C(N)=O)[C@@H](C)O"
[reply] 2

[ask] Report MIC, nothing else, for this molecule: "CCCCCCCCCCC(=O)NCCCC[C@@H](NC(=O)[C@H](CC(C)C)NC(=O)[C@H](CC(C)C)NC(=O)CN)C(=O)N[C@@H](CCCNC(=N)N)C(=O)N[C@H](C(=O)N[C@H](CCCCN)C(=O)N[C@H](C(=O)N[C@@H](CC(C)C)C(=O)N[C@@H](CC(C)C)C(N)=O)[C@@H](C)O)[C@@H](C)CC"
[reply] 4

[ask] Report MIC, nothing else, for this molecule: "CCCCCCCCCCCCCCCCC(=O)NCCCC[C@@H](NC(=O)[C@@H](NC(=O)[C@H](CCCNC(=N)N)NC(=O)[C@@H](CCCCN)NC(=O)[C@H](CC(C)C)NC(=O)[C@H](CC(C)C)NC(=O)CN)[C@@H](C)CC)C(=O)N[C@H](C(=O)N[C@@H](CC(C)C)C(=O)N[C@@H](CC(C)C)C(N)=O)[C@@H](C)O"
[reply] 16

[ask] Report MIC, nothing else, for this molecule: "CCCCCCCCCCCCC(=O)NCCCC[C@@H](NC(=O)[C@@H](NC(=O)[C@H](CCCNC(=N)N)NC(=O)[C@@H](CCCCN)NC(=O)[C@H](CC(C)C)NC(=O)[C@H](CC(C)C)NC(=O)CN)[C@@H](C)CC)C(=O)N[C@H](C(=O)N[C@@H](CC(C)C)C(=O)N[C@@H](CC(C)C)C(N)=O)[C@@H](C)O"
[reply] 2

[ask] Report MIC, nothing else, for this molecule: "CCCCCCCCCCCCCCCCC(=O)NCCCC[C@@H](NC(=O)[C@H](CC(C)C)NC(=O)[C@H](CC(C)C)NC(=O)CN)C(=O)N[C@@H](CCCNC(=N)N)C(=O)N[C@H](C(=O)N[C@H](CCCCN)C(=O)N[C@H](C(=O)N[C@@H](CC(C)C)C(=O)N[C@@H](CC(C)C)C(N)=O)[C@@H](C)O)[C@@H](C)CC"
[reply] 8
